biological target: Adenosine deaminase (Bos taurus); assay: In vitro inhibition of adenosine deaminase isolated from calf intestine.
Attribute Measured: pKi
pKi is defined as minus the log10 of a concentration measured in mol/L.

CCCCCCC(C(C)O)n1ccnn1 (stereo in doubt; 13e) = 4.62
CCCCCCC(C(C)O)n1ccnc1 (stereo in doubt; 6e) = 6.15
CCCCCCC(C(C)O)n1cncn1 (stereo in doubt; 18t) = 6.00
CCCCCCC(C(C)O)n1ncnn1 (stereo in doubt; 25e) = 5.02

Query CCCCCCC(C(C)O)n1cnnn1 (stereo in doubt; 23e) yields pKi of 6.22

Query CCCCCCC(C(C)O)n1cnnc1 (stereo not given) yields pKi of 4.59

Query CCCCCCC(C(C)O)n1ccnc1 (stereo in doubt; 6t) yields pKi of 5.74

Query CCCCCCC(C(C)O)n1cncn1 (stereo in doubt; 18e) yields pKi of 6.52

Query CCCCCCC(C(C)O)n1cnnn1 (stereo in doubt; 23t) yields pKi of 4.82

Query CCCCCCC(C(C)O)n1cnc2c(N)nccc21 (stereo not given) yields pKi of 6.80

Query CCCCCCC(C(C)O)n1ccnn1 (stereo in doubt; 13t) yields pKi of 4.00

Query CCCCCCC(C(C)O)n1cnc2c(N)ccnc21 (stereo not given) yields pKi of 8.00

###

Target: UniProt:P56658
Sequence (P56658 whole entry): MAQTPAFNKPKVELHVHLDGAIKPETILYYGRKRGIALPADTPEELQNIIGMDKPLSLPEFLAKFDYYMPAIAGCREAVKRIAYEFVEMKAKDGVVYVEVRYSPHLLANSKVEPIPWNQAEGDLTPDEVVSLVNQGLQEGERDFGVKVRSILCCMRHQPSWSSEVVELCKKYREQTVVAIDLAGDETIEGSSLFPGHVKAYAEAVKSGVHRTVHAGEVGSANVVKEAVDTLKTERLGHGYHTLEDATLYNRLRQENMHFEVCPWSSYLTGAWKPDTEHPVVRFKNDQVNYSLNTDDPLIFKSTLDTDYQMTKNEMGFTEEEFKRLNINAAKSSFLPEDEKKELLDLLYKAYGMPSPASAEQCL
Test: In vitro inhibition of adenosine deaminase isolated from calf intestine.
Reported Ki values for the following compounds.

CCCCCCC(C(C)O)n1cccn1 (stereo not drawn) = > 1000 µM
CCCCCCC(C(C)O)n1ncnn1 (stereo in doubt; 25t) = > 1000 µM

Query CCCCCCC(C(C)O)n1nccn1 (stereo not drawn) yields Ki of > 400 µM

Values compiled from ChEMBL document CHEMBL1127841.
